B1: Formin-binding protein 4, residues 200 to 261; numbered along this chain, Q8N3X1 (parent)
chain: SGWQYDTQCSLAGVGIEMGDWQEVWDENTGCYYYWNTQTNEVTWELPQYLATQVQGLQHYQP

variants of: B1; assay: abundance fitness (aPCA) (normalised: wild type 0, dead -1); higher = more abundant; growth selection in yeast, the domain comes from the species named; settings: Homo sapiens
// bucketize abundance fitness: low = under -0.5, medium = from -0.5 up to -0.1, high = -0.1 and over

Examples with answers:
G15M = medium
D6I = medium

Into which category would you place Y32S ? low

Into which category would you place C31R ? high

Into which category would you place C9Y ? medium

Into which category would you place Q61W ? medium

Into which category would you place S10G ? medium

Into which category would you place G15Y ? low

Into which category would you place T43C ? high

Into which category would you place A51I ? low

Into which category would you place G2I ? high

Into which category would you place G56A ? high

Into which category would you place W21Y ? high

Into which category would you place S10P ? medium

Into which category would you place I16V ? high

Ref: the Human Domainome abundance scans (Beltran et al. 2025)
